Data credit: the supplement of paper PMC10567573

B1: GNB5 (parent)
chain: DINSVRYYPSGDAFASGSDDATCR

variants of: B1; test: protein stability index of a GFP-peptide fusion (GPS, HEK-293T) (PSI 1-6); higher = more stable; conditions: c terminus: a fixed tail appended;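 further: lentivirally expressed fusions sorted by FACS into six bins by GFP to DsRed ratio, PSI derived from sequencing read proportions per bin multiplied by bin number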
measure-name: protein stability index
API note: the answer field is a bare number with no unit suffix.

P9T ... 4.02
D1N ... 4.37
R6Y ... 3.62
P9H ... 3.52
R24W ... 3.53

Kindly consider the entry below.
IN: State the recorded protein stability index for this entry: F14T
OUT: 4.75
